- system_name: T1, IL10Rα and IL2Rγ on human primary cells (CD8 T cells, CD4 T cells, monocytes) (human) (UniProt Q13651)
- T1 sequence (looked up) 1: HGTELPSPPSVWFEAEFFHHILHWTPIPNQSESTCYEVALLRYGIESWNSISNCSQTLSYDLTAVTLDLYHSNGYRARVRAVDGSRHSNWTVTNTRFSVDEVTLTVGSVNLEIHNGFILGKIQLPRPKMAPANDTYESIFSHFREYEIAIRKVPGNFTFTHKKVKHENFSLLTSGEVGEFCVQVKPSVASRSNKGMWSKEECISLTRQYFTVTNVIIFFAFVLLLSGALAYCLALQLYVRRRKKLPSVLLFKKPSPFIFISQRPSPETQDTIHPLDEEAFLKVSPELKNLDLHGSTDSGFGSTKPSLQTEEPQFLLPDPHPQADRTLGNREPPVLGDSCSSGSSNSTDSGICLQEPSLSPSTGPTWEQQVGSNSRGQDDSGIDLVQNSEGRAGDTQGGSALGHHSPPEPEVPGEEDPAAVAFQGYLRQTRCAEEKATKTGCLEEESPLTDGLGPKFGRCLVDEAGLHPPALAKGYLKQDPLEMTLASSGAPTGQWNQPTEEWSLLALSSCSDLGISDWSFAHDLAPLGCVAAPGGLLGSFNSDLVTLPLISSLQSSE
- T1 sequence (looked up) 2: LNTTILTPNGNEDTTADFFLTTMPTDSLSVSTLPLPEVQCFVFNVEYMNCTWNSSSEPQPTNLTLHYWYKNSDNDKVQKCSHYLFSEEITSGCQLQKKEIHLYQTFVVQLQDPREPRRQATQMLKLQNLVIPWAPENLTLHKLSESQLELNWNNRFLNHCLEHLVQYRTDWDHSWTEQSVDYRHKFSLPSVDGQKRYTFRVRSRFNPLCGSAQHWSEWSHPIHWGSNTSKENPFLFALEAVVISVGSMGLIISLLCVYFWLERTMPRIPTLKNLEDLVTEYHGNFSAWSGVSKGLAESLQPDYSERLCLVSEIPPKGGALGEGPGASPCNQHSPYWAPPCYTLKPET
- protocol_notes: cell-based or functional assay
Provide the recorded pSTAT3 (MFI) in CD8 T cells at 10 µM for the entries that follow.
Write the quantity with the unit trailing the number.

Query: I would be grateful if you could share the reported pSTAT3 (MFI) in CD8 T cells at 10 µM for hIL10Ra_VHH14-hIL2Rg_VHH19, linker GGGS, tag Fc (Fc fusion, not shown: a dimerising Fc or GST) QVQLQESGGGSVQAGGSLRLSCGASGYTYSSYCMGWFRQVPGKEREGVAVIDSDGSTSYADSVKGRFTISKDNGKNTLYLQMNSLKPEDTAMYYCAADLGHYRPPCGVLYLGMDYWGKGTQVTVSSGGGSQVQLQESGGGSVQAGGSLRLSCTASGFTFDDREMNWYRQAPGNECELVSTISSDGSTYYADSVKGRFTISQDNAKNTVYLQMDSVKPEDTAVYYCAADFMIAIQAPGAGCWGQGTQVTVSS .
Response: 12300 MFI

Query: I would be grateful if you could share the reported pSTAT3 (MFI) in CD8 T cells at 10 µM for hIL10Ra_VHH14-hIL2Rg_VHH19, linker GS, tag his (bispecific antibody, not shown: small tags and cut ends) QVQLQESGGGSVQAGGSLRLSCGASGYTYSSYCMGWFRQVPGKEREGVAVIDSDGSTSYADSVKGRFTISKDNGKNTLYLQMNSLKPEDTAMYYCAADLGHYRPPCGVLYLGMDYWGKGTQVTVSSGSQVQLQESGGGSVQAGGSLRLSCTASGFTFDDREMNWYRQAPGNECELVSTISSDGSTYYADSVKGRFTISQDNAKNTVYLQMDSVKPEDTAVYYCAADFMIAIQAPGAGCWGQGTQVTVSS .
Response: 8410 MFI
